# System name: T1, anti-CD28 Fab (SEQ ID NOs: 202, 203)
# T1 construct: biotinylated and captured on neutravidin coated plates in the phage ELISA
# T1 sequence (VH, as listed by the source, chain 1 of 2): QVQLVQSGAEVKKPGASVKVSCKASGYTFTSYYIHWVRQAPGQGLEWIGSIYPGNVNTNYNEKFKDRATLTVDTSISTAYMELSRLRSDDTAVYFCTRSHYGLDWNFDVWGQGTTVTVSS
# T1 sequence (VL, as listed by the source, chain 2 of 2): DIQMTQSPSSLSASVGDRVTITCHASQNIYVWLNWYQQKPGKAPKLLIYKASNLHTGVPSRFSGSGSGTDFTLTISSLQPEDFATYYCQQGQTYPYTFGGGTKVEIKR
# Assay overview: phage binding ELISA; biotinylated Fab on neutravidin plate;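 further: clonal phage supernatants added to Fab wells pretreated with CD28 antigen or with blocking buffer only, bound phage read out via HRP-linked anti-M13 antibody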
Measurement label: Anti-CD28 Fab (SEQ ID NOs: 202, 203) signal

* YCEGHLQEYMEKCL [Phage-317] | 1.89
* YCAGHLEEYMDKCL [Phage-311] | 1.9
* YCEGHSPEYMRKCL [Phage-385] | 1.77
* YCDGHLSEYMFKCL [Phage-371] | 1.79
* YCEGHSPWYMNKCL [Phage-449] | 1.68
* YCDGHLVEYRGKCL [Phage-432] | 1.71
* YCAGHLPEYMLKCL [Phage-387] | 1.76
* YCDGHTQAYIQKCL [Phage-421] | 1.73
* YCDGHLPVYLEKCL [Phage-444] | 1.69
* YCDGHAIEYMAKCL [Phage-446] | 1.69
* YCEGHSLEYMAKCL [Phage-327] | 1.88
* YCDGHSALYMSKCL [Phage-333] | 1.87
* YCDGHSLQYLGKCL [Phage-343] | 1.84
* YCEGHAAEYMWKCL [Phage-353] | 1.83
* YCDGHSPEYMPKCL [Phage-319] | 1.89
* YCAGHAEQYMAKCL [Phage-370] | 1.8
